Each recorded value in this set is attributed to ChEMBL document CHEMBL1201862.

Test system: SF-539
test: NCI tumour cell line growth inhibition, 48 h
Active and inactive are the calls of the source. No stated cut-off is given here; in the data, active = GI50 up to about 1.1 µM and inactive = higher.
parameter: GI50

>>> datavalue("COc1ccc(OCc2nc3cc(C(F)(F)F)ccc3nc2-c2ccccc2)cc1")
"> 100 µM (inactive)"
>>> datavalue("COC(=O)C(C(=O)C(=O)Nc1ccccc1C#N)c1nc2ccc([N+](=O)[O-])cc2nc1O (stereo not drawn)")
"44.5 µM (inactive)"
>>> datavalue("Brc1ccc(-c2[nH]c3ccccc3c2/C=N\\Nc2ccc(-c3nc4ccccc4[nH]3)cc2)cc1")
"< 0.01 µM (active)"

###

Listing: GI50 of selected compounds
Tested on: COLO 205
test: NCI tumour cell line growth inhibition, 48 h
Activity calls are given as the source filed them. No stated cut-off is given here; in the data, active = GI50 up to about 1.1 µM and inactive = higher. Peptide text beside a SMILES is read from it. * marks the point of attachment. Boc = CC(C)(C)OC(=O)*
parameter: GI50

>>> datavalue("O=C(/C=C/c1ccccc1)Oc1cccc(Br)c1")
"64.1 µM (inactive)"
>>> datavalue("N#CC1(C#N)C2CCCCC23OC(=N)C1(C#N)C(c1ccco1)O3 (stereo not drawn)")
"11.9 µM (inactive)"
>>> datavalue("CC1=C2C(=O)C3[C@@H](CCC4=CC(=O)CC[C@@]43C)C2CC[C@]12O[C@@H]1C[C@H](C)CN[C@H]1[C@H]2C (stereo partly drawn)")
"73.6 µM (inactive)"
>>> datavalue("COc1ccc(C(=O)Nc2ccn(CCOC(=O)c3ccc(OC)cc3)c(=O)n2)cc1")
"> 100 µM (inactive)"
>>> datavalue("CC(C)NC(=O)OCc1c(COC(=O)NC(C)C)c(-c2cc[n+](COC(=O)C3CCCCC3)cc2)n2c1CCC2")
"> 100 µM (inactive)"
>>> datavalue("CCC1(Cl)C(=O)NC(=O)N(C2CC(O)C(CO)O2)C1N=[N+]=[N-] (stereo not drawn)")
"> 100 µM (inactive)"
>>> datavalue("NC1=NC(=O)C2(NN1)c1ccccc1-c1ccccc12")
"> 10 µM (inactive)"
>>> datavalue("CCOCC(NC(=O)C(CC(C)C)NC(=O)OC(C)(C)C)C(N)=O (stereo not drawn) (Boc-Leu-Ser(Et)-NH2; configuration not given here)")
"> 100 µM (inactive)"
>>> datavalue("CN(C)c1nc(NC23CC4CC(CC(C4)C2)C3)nc(N(C)C)n1")
"11.7 µM (inactive)"
>>> datavalue("O=C1C(Cl)C(c2cccc(Cl)c2)N1c1ccc(-n2c(S)nc3ccccc3c2=O)cc1 (stereo not drawn)")
"24.5 µM (inactive)"
>>> datavalue("Cc1ccc(S(=O)(=O)N2CCCCN(S(=O)(=O)c3ccc(C)cc3)Cc3ccccc3OCCOCCOc3c4cccc3Cc3cccc5c3OCCOCCOc3ccccc3CN(S(=O)(=O)c3ccc(C)cc3)CCCN(S(=O)(=O)c3ccc(C)cc3)Cc3ccccc3OCCOCCOc3c(cccc3C4)Cc3cccc(c3OCCOCCOc3ccccc3C2)C5)cc1")
"> 100 µM (inactive)"
>>> datavalue("CC(=O)O[C@]12CCCCCCC1C1(O)C(O)CCC[C@H]12 (stereo partly drawn)")
"> 100 µM (inactive)"
>>> datavalue("C=C(CO)[C@H]1CC/C(C)=C/CC/C(C)=C/C/C=C(\\C)[C@H](O)C1")
"22.3 µM (inactive)"

###

In this section, each of the molecules is paired with its reported GI50.
Tested on: SK-MEL-2
test: NCI tumour cell line growth inhibition, 48 h
Calls of active or inactive are those of the source. Rule as the data show it: active = GI50 up to about 1.1 µM and inactive = higher.
parameter: GI50

>>> datavalue("Cn1c2ccccc2c(=O)c2cccc(C(=O)NC(CCCNC(=N)N)C(=O)O)c21 (stereo not given)")
"> 100 µM (inactive)"
>>> datavalue("CC1=CC2c3cccc4[nH]cc(c34)CC2N(C)C1 (stereo not given)")
"> 100 µM (inactive)"
>>> datavalue("CC(=O)c1ccc(Nc2c3c(nc4ccccc24)CCCC3)cc1")
"24 µM (inactive)"
>>> datavalue("CC(C)OC(=O)NNc1c(Cl)cc(Cl)cc1Cl")
"55.6 µM (inactive)"
>>> datavalue("[N-]=[N+]=CC(=O)OCC1NC(=O)C(COC(=O)C=[N+]=[N-])NC1=O (stereo not given)")
"> 100 µM (inactive)"
>>> datavalue("CC(C)(C)OC(=O)N1C(=O)OC[C@@H]2C=C[C@@H]21")
"> 100 µM (inactive)"
>>> datavalue("CC1=C[C@]2(CC(C)C3C(CC4(C)C5CCC6C(C)(C)C(=O)CC[C@@]67C[C@@]57CC[C@]34C)O2)OC1=O (stereo not given in full)")
"34.4 µM (inactive)"
>>> datavalue("O=C(CN1CCNCCN(CC(=O)N2CCCCC2)CCNCC1)N1CCCCC1")
"> 100 µM (inactive)"
>>> datavalue("O=C1C=CC(=O)N1Nc1ccc([N+](=O)[O-])cc1[N+](=O)[O-]")
"> 100 µM (inactive)"
>>> datavalue("O=C(Nc1c(-c2nc3ccccc3[nH]2)sc(=S)n1-c1ccccc1)c1ccccc1")
"> 100 µM (inactive)"
